Provide the recorded Total Cell Count for the entries that follow.
- Test system: U2OS
- protocol.details: Multiplex assay against U2OS
- Type: toxicity, cell-based
- assay.setup: human, 12 h, 1 µM, compound concentration 1 uM, replicate 2
// return a plain number; no unit text

Total Cell Count measured on Cc1cn(-c2cc(NC(=O)c3ccc(C)c(Nc4nccc(-c5cccnc5)n4)c3)cc(C(F)(F)F)c2)cn1 [NILOTINIB] = 66

Total Cell Count measured on `CNc1cc(Oc2cc(C(=O)Nc3cc(N4CCN(C)CC4)cc(C(F)(F)F)c3)ccc2C)ncn1` = 56

Total Cell Count measured on `CCOc1cc(C(=O)N2CCC(N3CCN(C)CC3)CC2)ccc1Nc1ncc2c(n1)N(C1CCCC1)c1ccccc1C(=O)N2C` = 67

Total Cell Count measured on CN1CCC(=C2c3ccccc3CC(=O)c3sccc32)CC1.O=C(O)/C=C/C(=O)O [KETOTIFEN FUMARATE] = 56

Total Cell Count measured on `CCNc1cc(N[C@H]2CC[C@H](O)CC2)nc(Nc2ccc3c(ccn3Cc3ccccc3)c2)n1` = 120

Total Cell Count measured on `COc1ccc(S(=O)(=O)N(CCO)c2ccccc2CN(C)C/C=C/c2ccc(Cl)cc2)cc1.O=P(O)(O)O` = 118

Total Cell Count measured on O=C(Nc1ccc(-n2nc(-c3cccnc3)cc2C(F)(F)F)cn1)c1ccc(-c2ccccc2)c(F)c1 [BI 2049] = 69

Total Cell Count measured on `Cc1cc(C)c(S(=O)(=O)N(Cc2ccc(-c3cccc(S(C)(=O)=O)c3)cc2)Cc2ccc(C(F)(F)F)o2)c(C)c1` = 72

Total Cell Count measured on `O=C1N/C(=N/c2ccccc2F)S/C1=C\c1ccc(C(=O)O)cc1` = 66

Total Cell Count measured on CCN1CCN(c2ccc(Nc3cc(N(C)C(=O)Nc4c(Cl)c(OC)cc(OC)c4Cl)ncn3)cc2)CC1 [INFIGRATINIB] = 127

Total Cell Count measured on `CCn1c(=O)c(-c2ccc(-c3cncs3)cc2Cl)cc2cnc(Nc3ccc(N4CCN(C)CC4)cc3)nc21` = 76

Total Cell Count measured on `Cl.Oc1ccc2c3c1O[C@H]1c4[nH]c5c(c4C[C@@]4(O)[C@@H](C2)N(CC2CC2)CC[C@]314)C[C@@]1(O)[C@H]2Cc3ccc(O)c4c3[C@@]1(CCN2CC1CC1)[C@H]5O4` = 97

Total Cell Count measured on `Cl.O=C(c1ccc(Nc2nccc(-c3cc4ccccc4s3)n2)cc1)N1CCC(N2CCCC2)CC1` = 110

Total Cell Count measured on C=C1/C(=C\C=C2/CCC[C@]3(C)[C@@H]([C@H](C)/C=C/[C@H](C)C(C)C)CC[C@@H]23)C[C@@H](O)C[C@@H]1O [DOXERCALCIFEROL] = 111

Total Cell Count measured on CCOC(=O)c1c(C)[nH]c2ccc3c(c12)CN1CCc2cc(OC)ccc2C1O3 (stereo not given) = 65
